- Substrate: F protein of RSV B/Washington virus (respiratory syncytial virus B, Washington strain)
- method-notes: cell-based or functional assay
assay-endpoint: PRNT IC50 (µg/mL)
Give bare numbers, in µg/mL.

Query: PRNT IC50; subject: M4A02 (antibody, V domains shown) VH: EVQLVESGGGLVEPGGSLRLSCAASGFMFTSYAMHWVRQAPGRGLEWVSSITGGGNFVEYAVSVQGRFTVSRDNNQNSLYLQMNSLRVEDTAMYYCAREDYNSGANLHWFDPWGQGTLVTVSS VL: QSVLTQPPSVSGAPGQRVTISCTGSSSNIGAFFDVHWYSHLPGTAPKLLIYGDRNRPSGVPERFSGSKSGASASLTITGLRAEDEADYYCQSYDRGLSAWVFGGGTRVTVL
0.0364

Hey, just so you know, these numbers are from patent US20240327502A1.
